- Test system: SF-295 CNS
- experiment_summary: NCI-60 one-dose screen, 48 h (100 = growth as untreated, 0 = no growth, -100 = all killed)
- assay_conditions: 10 µM unless noted
About 83,000 compounds went through this panel and 20% of them were active in at least one assay; those are over-represented in the sample as a whole. Calls of active or inactive are those of the source. Rule for the calls: active = growth percent below 10; inactive = the rest.
Item-by-item account of growth

Here's what some known entries look like.
molecule	assayed_target	value_measured
O=C1/C(=C\c2cccc3nccnc23)SC(=S)N1CCc1ccc(O)cc1	SF-295 CNS	101% (inactive)
COc1ccc(/C=C(/C(=O)n2cnnn2)c2cc(OC)c(OC)c(OC)c2)cc1	SF-295 CNS	-7.45% (active)
Nc1c(C(=O)Nc2cccc(Cl)c2)sc2nc3c(cc12)CCCC3	SF-295 CNS	91.6% (inactive)
CS(=O)(=O)c1ccc(NC(=O)c2ccccc2)nc1	SF-295 CNS	106% (inactive)
O=C(O)COc1ccc(Cl)c(Cl)c1	SF-295 CNS	103% (inactive)

Provide only the value of recorded growth for O=C(CN1CCN(c2cc3c(cc2F)c(=O)c(C(=O)O)cn3C2CC2)CC1)N/N=C/c1ccco1
100% (inactive)

Determine its reported growth: CN1CCN(C(=O)C(C)(C)c2ccc(C(=O)Nc3cn4cc(-c5ccncc5)ccc4n3)cc2)CC1
8.85% (active)

Please list growth recorded for the molecule NC1(CO)COC(c2ccccc2)OC1 (configuration not stated)
113% (inactive)

Give recorded growth. CCN1CCN(CCNc2nccc(-c3c(-c4ccc(F)c(OC)c4)nc4sccn34)n2)S1(=O)=O
90.5% (inactive)

====

- Test system: NCI-H460 lung
- experiment_summary: NCI-60 one-dose screen, 48 h (100 = growth as untreated, 0 = no growth, -100 = all killed)
- assay_conditions: 10 µM unless noted
- Procedure: Growth inhibition of the NCI-H460 human Non-Small Cell Lung tumor cell line is measured as a screen for anti-cancer activity. Cells are grown in 96 well plates and exposed to the test compound for 48 hours. Compounds are tested at a single concentration, which is 10^-5 M for most compounds. The reported endpoint is percent growth (GI% or GIPRCNT), where numbers from 0 - 100% represent growth inhibition, and numbers from -100% - 0 represent cell death. […]
About 83,000 compounds went through this panel and 20% of them were active in at least one assay; those are over-represented in the sample as a whole.
# growth listing for each entry below
// return numeric value only (unit: %, not printed)

compound	growth (%)
O=C(Cc1cccc(OC(F)(F)F)c1)Nc1ccc(CCCCc2nnc(NC(=O)Cc3ccccn3)s2)nn1	74.2
CS(=O)(=O)c1nnc(-c2ccccc2)s1	111
COc1cccc(C(=O)NNc2nc(Cl)nc(Cl)n2)c1	107

Kindly indicate its recorded growth. Item: Nc1nc(N)c2c(n1)NC(c1cccc(Nc3ccnc4cc(C(F)(F)F)ccc34)c1)CC(c1ccccc1)=N2 (centres undefined)
22.6

For O=C(Nc1ncc(Cc2cc(C(F)(F)F)ccc2Cl)s1)c1cccs1 , write its growth.
32.2

Dear colleague, please send me the reported growth for CCn1cc(CNc2ccc(C(=O)Nc3cc4cc(OC)c(OC)cc4c(C)n3)cc2)cn1 when you can.
86.7

Supply recorded growth for O=C(NNC(=O)c1ccc(NC(=O)c2ccccn2)cc1)Nc1ccc2ccccc2c1 here.
110

Note down growth recorded for C/C(Cc1ccc(Cl)cc1)=C(\c1ccc(OCCCN(C)C)cc1)c1ccc(OC(=O)Cc2ccccc2)cc1
110

Please look at this compound and report its growth: Cc1ccc(/C=C/C(=O)c2cccc(OCCCOc3cccc(C(=O)/C=C/c4ccc(C)cc4)c3)c2)cc1
75.9

====

- System: M14 melanoma
- experiment_summary: NCI-60 one-dose screen, 48 h (100 = growth as untreated, 0 = no growth, -100 = all killed)
- assay_conditions: 10 µM unless noted
The panel holds about 83,000 compounds, 20% with a hit somewhere; the sample as a whole holds those more often.
# growth annotations
Quick reminder: number only, in %, skip the unit.

Recorded growth, per entry:
compound	result_unit	growth
CCN1C(=O)N(CC)C2C1NC(=S)N2/N=C/c1ccc(OC)cc1 (stereo not given)	%	29.9
Cc1nnc(-c2ccc3c(c2)nc(/C=C/c2ccccc2)n3C2CCCCC2)o1	%	73.7

With M14 melanoma as the test system, provide measured growth for this compound: Oc1c(CN2CCOCC2)cc(COCc2ccccc2)c2cccnc12
12

Provide the reported growth (system: M14 melanoma) for COc1cccc(CNc2c3ccccc3nc3ccccc23)c1
35.2

With M14 melanoma as the test system, provide measured growth for this compound: COc1cc(OC)c2sc(-c3ccc(-n4cncc4-c4cc(OC)c(OC)c(OC)c4)cc3)nc2c1
69

====

- Tested on: UACC-257 melanoma
- experiment_summary: NCI-60 one-dose screen, 48 h (100 = growth as untreated, 0 = no growth, -100 = all killed)
- assay_conditions: 10 µM unless noted
This is part of a sample that, as a whole, favours compounds with a hit. Of some 83,000 tested, about 20% had one in any assay.
// class assignment uses growth with these ranges: bin 1: < 60%; bin 2: ≥ 60% and < 90%; bin 3: ≥ 90%

compound	label_value
Fc1ccc(Cn2cc(CSc3nc4ccccc4o3)nn2)cc1	bin 3
CC(=O)c1sc2sc(C(C)=O)c(C)c2c1C	bin 2
CO[C@H](C(=O)[C@@H](O)[C@@H](C)O)[C@@H]1Cc2cc3cc(O[C@H]4C[C@@H](O[C@H]5C[C@@H](O)[C@H](O)C(C)O5)[C@H](O)C(C)(O)O4)cc(O)c3c(O)c2C(=O)[C@H]1O[C@H]1C[C@@H](O[C@H]2C[C@@H](O[C@H]3C[C@@H](OC)[C@H](O)C(C)O3)[C@@H](O)C(C)O2)[C@H](O)C(C)O1 (stereo partly specified)	bin 1
COC(=O)c1nc(-c2ccccc2)oc1S(=O)(=O)NCC(c1ccc(Cl)cc1)N1CCOCC1 (stereo unspecified)	bin 2
Nc1c(C(=O)Nc2cccc(Cl)c2)sc2nc3c(cc12)CCCC3	bin 2
COc1cc2c(c(OC)c1OC)C(=O)CC(c1cccc(NC(=O)c3ccc(C#N)cc3)c1)O2 (stereo unspecified)	bin 2

Which category does the recorded growth put CCN1C(=O)N(CC)C2C1NN=c1s/c(=C\c3ccc[nH]3)c(=O)n12 (stereo unspecified) in?
bin 1

For this compound, which bin applies? C[C@H](C(=O)N(CCc1ccc(Cl)c(Cl)c1)Cc1cncs1)[C@@H]1CC[C@H](C[C@H](C)n2cc(CN3CCC(c4ccc(Cl)cc4)CC3)nn2)O1
bin 3

Which growth band matches O=C(NNC(=O)c1ccc(NC(=O)c2ccccn2)cc1)Nc1ccc2ccccc2c1 ?
bin 3

====

- System: HCT-116 colon
- experiment_summary: NCI-60 one-dose screen, 48 h (100 = growth as untreated, 0 = no growth, -100 = all killed)
- assay_conditions: 10 µM unless noted
This is part of a sample that, as a whole, favours compounds with a hit. Of some 83,000 tested, about 20% had one in any assay.
Classification by growth | ranges: low bin (below 20%), mid bin (20% to below 90%), high bin (90% or more)

Solved entries:
compound	label_value
CC(=O)OC(c1ccccc1)C1CCOC1=O (centres undefined)	high bin
CCc1ccc(CCC(=O)Nc2ncc(Cc3ccccc3)s2)o1	mid bin
Cc1ccc(C(=O)c2ccc(CC(=O)N=Nc3c(O)[nH]c4ccc(Br)cc34)n2C)cc1	mid bin
Cc1ccc(-c2nc(SCc3nc4cc(Cl)c(Cl)cc4[nH]3)[nH]c(=O)c2C#N)cc1	high bin
N#C/C(=C\c1ccc([N+](=O)[O-])cc1)n1nnc2cc(F)c(F)cc21	low bin

Exercise: read the entry CN1CCN(C(=S)SCCCCOc2cc(=O)oc3ccccc23)CC1 and state which class it falls under.
mid bin

For COc1cc(C(=O)c2c(-c3ccccc3)oc3c(OC)cccc23)cc(OC)c1OC , which growth bin applies?
low bin

Entry CC(=O)OC[C@]12CC[C@@H]([C@@H](C)c3nnc(-c4ccncc4)o3)[C@@H]1[C@H]1CC[C@@H]3[C@@]4(C)CC[C@H](OC(C)=O)C(C)(C)[C@@H]4CC[C@@]3(C)[C@]1(C)CC2 belongs to which category?
mid bin

====

- Test system: 786-0 renal
- experiment_summary: NCI-60 one-dose screen, 48 h
- assay_conditions: 10 µM unless noted
This is part of a sample that, as a whole, favours compounds with a hit. Of some 83,000 tested, about 20% had one in any assay. Calls of active or inactive are those of the source. How the source made its calls: active means growth percent below 10; inactive means the rest.
Tick one outcome: active, inactive

The examples below pair each entry with its known result.
compound	label_value
O=C1/C=C/[C@@H](O)[C@@H]2C[C@@H](O)C[C@H]2/C=C/CCC[C@@H](O)CCO1	inactive
Cc1nc2c(=O)nc3s/c(=C\c4ccco4)c(=O)n3c2nc1C	inactive
C=C(C)[C@@H]1CC[C@]2(C(=O)N3CCN(C)CC3)CC[C@]3(C)[C@H](CC[C@@H]4[C@@]5(C)CC[C@H](OC(=O)c6ccccc6C(=O)O)C(C)(C)[C@@H]5CC[C@]43C)[C@@H]12	inactive
C=C1CC[C@@H]2[C@](C)(COC(C)=O)[C@H](OC(C)=O)CC[C@@]2(C)[C@@H]1CC(Nc1ccc(S(=O)(=O)NC(C)=O)cc1)C1=CCOC1=O (stereo partly drawn)	active
O=S(=O)(Nc1cc(Sc2cccc3cccnc23)c(O)c2ccccc12)c1ccccc1	inactive
Cc1c(Cl)cccc1C(=O)Nc1nc2c(s1)CN(C(=O)c1ccc(C(F)(F)F)cc1)CC2	inactive
Cc1cccc2c1C[C@@]1(C2=O)C(c2ccc(C(C)(C)C)cc2)=NOS1=O (stereo partly drawn)	inactive

From here, focus on the item given below.
What classification did CC1CCN(C(=O)CCCl)c2ccccc21 (stereo not drawn) end up with in this test?
inactive
